B1: PCMTD2 (parent)
chain: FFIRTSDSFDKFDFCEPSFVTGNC

Variants of: B1
METHOD DESCRIPTION: protein stability index of a GFP-peptide fusion (GPS, HEK-293T) (PSI 1-6); higher = more stable;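 note: lentivirally expressed fusions sorted by FACS into six bins by GFP to DsRed ratio, PSI derived from sequencing read proportions per bin multiplied by bin number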
CONDITIONS USED: c terminus: a fixed tail appended
Each record's protein stability index is compared with interval 1 = under 2, interval 2 = from 2 up to 3, interval 3 = 3 and over to give its class.

# bin lookup: classify `D10R` by its protein stability index
interval 2

Assign a category based on measured protein stability index for `D7V` and give only the class name.
interval 2

// bin(item) where item = `S18E`
interval 2

Band assignment needed for `C24M` please.
interval 3

Which of the defined bands does the recorded protein stability index of `F1R` sit within?
interval 2

Class for `T5G` ?
interval 1

Could you tell me which band `G22N` belongs to?
interval 2

Which class holds `R4N` ?
interval 1

Class label required: `T21P`
interval 3

Could you place `F9N` in its proper category? Many thanks.
interval 2

For `F14N` , which protein stability index bin applies?
interval 2

Kindly state the category for this variant: `F12A`
interval 2

Pick a category. Item: `F1L`
interval 2

Classify this variant: `F1I`
interval 1

For `E16D` , which protein stability index bin applies?
interval 2

Which band does `F1K` fall in?
interval 2

Looking at `E16K` , which class would you pick?
interval 3
